Biological target: Sphingosine 1-phosphate receptor 1 (Homo sapiens, UniProt P21453)
Sequence (P21453 whole entry): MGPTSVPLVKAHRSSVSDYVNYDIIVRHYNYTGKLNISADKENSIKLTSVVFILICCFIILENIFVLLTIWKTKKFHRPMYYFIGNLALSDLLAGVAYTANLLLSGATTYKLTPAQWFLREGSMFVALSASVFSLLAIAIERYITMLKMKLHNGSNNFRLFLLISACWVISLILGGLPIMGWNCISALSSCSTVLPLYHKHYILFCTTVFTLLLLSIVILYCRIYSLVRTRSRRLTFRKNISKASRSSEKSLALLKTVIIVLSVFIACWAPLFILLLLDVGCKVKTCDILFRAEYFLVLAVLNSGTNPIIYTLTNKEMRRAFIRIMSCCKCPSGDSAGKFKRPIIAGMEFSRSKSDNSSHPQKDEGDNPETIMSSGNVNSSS
Assay: potentiators of S1P1 agonist response, dose response, cell-based, potentiator mode, 60K MLSMR set (AID 466)
READOUT KIND: pEC50
// field semantics: pEC50 = negative decimal log of concentration (mol/L)

A selection of reference data follows.
INSERT INTO measurements (compound, readout_number) VALUES
  ('Cc1occc1C(=O)N1CCN(c2ccc(Cl)c(Cl)c2)CC1', 5.29),
  ('Cn1ncnc2c(=O)n(C)c(=O)nc1-2', 5.76),
  ('CC1=NC(=O)NC(c2ccccc2)C1C(=O)OCc1ccc2c(c1)OCO2 (stereo unspecified)', 5.47);

In the following, a different compound is considered.
# input compound: Cc1nc2sccn2c1-c1csc(NCc2ccccc2)n1 ; wanted: its pEC50 5.44
